# Target of assay: A1 adenosine receptor (Sus scrofa, UniProt Q4VQ11)
# Sequence (Q4VQ11 whole entry): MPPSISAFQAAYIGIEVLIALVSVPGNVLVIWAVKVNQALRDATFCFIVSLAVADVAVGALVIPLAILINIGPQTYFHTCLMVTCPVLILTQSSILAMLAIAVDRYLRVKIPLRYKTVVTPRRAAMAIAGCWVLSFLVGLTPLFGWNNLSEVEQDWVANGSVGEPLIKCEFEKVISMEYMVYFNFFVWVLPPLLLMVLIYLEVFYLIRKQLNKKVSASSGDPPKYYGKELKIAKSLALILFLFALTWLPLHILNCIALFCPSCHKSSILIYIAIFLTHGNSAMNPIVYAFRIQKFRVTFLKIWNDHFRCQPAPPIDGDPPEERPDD
# Test details: Agonist activity at adenosine A1 receptor in pig cortical membrane assessed as stimulation of GTPgammaS binding
pEC50: −log10 of the molar value.
Experimental endpoint: pEC50

# Molecule, Value measured
measured = [
    ("OC[C@H]1O[C@@H](n2cnc3c(N[C@@H]4CCOC4)nc(Cl)nc32)[C@H](O)[C@@H]1O", 7.74),
    ("C[C@@]1(O)[C@H](O)[C@@H](COC(=O)NCc2ccccc2)O[C@H]1n1cnc2c(NC3CCCC3)nc(Cl)nc21", 5.30),
    ("CNC(=S)OC[C@H]1O[C@@H](n2cnc3c(NC4CCCC4)nc(Cl)nc32)[C@](C)(O)[C@@H]1O", 6.49),
]

###

Ki values, listed per item
# Target of assay: Uncharacterized protein (Bos taurus, UniProt E1BKU0)
# Sequence (E1BKU0 whole entry): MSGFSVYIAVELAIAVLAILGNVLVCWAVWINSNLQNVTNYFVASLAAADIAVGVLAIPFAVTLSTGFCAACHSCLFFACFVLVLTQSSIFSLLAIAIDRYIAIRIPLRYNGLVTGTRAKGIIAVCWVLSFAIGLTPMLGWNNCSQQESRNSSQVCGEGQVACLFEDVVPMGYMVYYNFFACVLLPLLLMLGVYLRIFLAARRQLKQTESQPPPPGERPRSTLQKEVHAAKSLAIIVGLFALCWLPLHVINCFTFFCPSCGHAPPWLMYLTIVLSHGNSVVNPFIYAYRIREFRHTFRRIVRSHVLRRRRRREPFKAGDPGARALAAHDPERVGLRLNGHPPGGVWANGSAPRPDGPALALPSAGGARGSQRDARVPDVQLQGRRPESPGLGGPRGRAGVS
Experimental endpoint: Ki (µM)

# Molecule, Target of assay, Experimental endpoint, Value measured
rows = [
    ("OC[C@H]1O[C@@H](n2cnc3c(NC4CCCC4)nc(Cl)nc32)[C@H](O)[C@@H]1O", "Uncharacterized protein (Bos taurus, UniProt E1BKU0)", "Ki", 0.73),
    ("CCCNC(=S)OC[C@H]1O[C@@H](n2cnc3c(N[C@@H]4CCOC4)nc(Cl)nc32)[C@](C)(O)[C@@H]1O", "Uncharacterized protein (Bos taurus, UniProt E1BKU0)", "Ki", 10),
    ("C[C@@]1(O)[C@H](O)[C@@H](COC(=S)NC2CCCC2)O[C@H]1n1cnc2c(NC3CCCC3)nc(Cl)nc21", "Uncharacterized protein (Bos taurus, UniProt E1BKU0)", "Ki", 8.09),
    ("C[C@@]1(O)[C@H](O)[C@@H](COC(=S)NCc2ccccc2)O[C@H]1n1cnc2c(NC3CCCC3)ncnc21", "Uncharacterized protein (Bos taurus, UniProt E1BKU0)", "Ki", 11),
    ("C[C@@]1(O)[C@H](O)[C@@H](CO)O[C@H]1n1cnc2c(NC3CCCC3)ncnc21", "Uncharacterized protein (Bos taurus, UniProt E1BKU0)", "Ki", 7.23),
    ("C[C@@]1(O)[C@H](O)[C@@H](COC(=O)NCc2ccccc2)O[C@H]1n1cnc2c(NC3CCCC3)nc(Cl)nc21", "Uncharacterized protein (Bos taurus, UniProt E1BKU0)", "Ki", 19.3),
]

###

# Target of assay: UniProt:P28190
# Sequence (P28190 whole entry): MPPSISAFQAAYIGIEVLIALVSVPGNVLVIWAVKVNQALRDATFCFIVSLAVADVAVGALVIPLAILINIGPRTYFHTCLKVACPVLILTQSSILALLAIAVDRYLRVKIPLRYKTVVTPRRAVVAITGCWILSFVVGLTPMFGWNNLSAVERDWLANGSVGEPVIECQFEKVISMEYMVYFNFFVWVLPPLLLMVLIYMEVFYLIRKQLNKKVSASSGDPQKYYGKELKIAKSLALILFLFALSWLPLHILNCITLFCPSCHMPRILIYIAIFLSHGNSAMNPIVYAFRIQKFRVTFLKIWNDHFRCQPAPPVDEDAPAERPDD
# Format: cell membranes
# Condition summary: read-out: Ki
pKi: −log10 of the molar value.

# Molecule, pKi
measured = [
    ("C[C@@]1(O)[C@H](O)[C@@H](CO)O[C@H]1n1cnc2c(NC3CCCC3)ncnc21", 8.36),
    ("C[C@@]1(O)[C@H](O)[C@@H](COC(=O)NCc2ccccc2)O[C@H]1n1cnc2c(N[C@@H]3CCOC3)ncnc21", 5.64),
    ("C[C@@]1(O)[C@H](O)[C@@H](COC(=S)NC2CCCC2)O[C@H]1n1cnc2c(N[C@@H]3CCOC3)nc(Cl)nc21", 6.34),
    ("CNC(=O)OC[C@H]1O[C@@H](n2cnc3c(N[C@@H]4CCOC4)ncnc32)[C@](C)(O)[C@@H]1O", 6.03),
    ("CCCNC(=O)OC[C@H]1O[C@@H](n2cnc3c(N[C@@H]4CCOC4)nc(Cl)nc32)[C@](C)(O)[C@@H]1O", 6.34),
    ("CNC(=S)OC[C@H]1O[C@@H](n2cnc3c(N[C@@H]4CCOC4)nc(Cl)nc32)[C@](C)(O)[C@@H]1O", 6.21),
    ("CCCNC(=O)OC[C@H]1O[C@@H](n2cnc3c(NC4CCCC4)nc(Cl)nc32)[C@](C)(O)[C@@H]1O", 7.19),
    ("C[C@@]1(O)[C@H](O)[C@@H](COC(=O)NC2CCCC2)O[C@H]1n1cnc2c(NC3CCCC3)nc(Cl)nc21", 7.18),
    ("OC[C@H]1O[C@@H](n2cnc3c(N[C@@H]4CCOC4)nc(Cl)nc32)[C@H](O)[C@@H]1O", 8.77),
]
